- assay_explanation: AUC (0 to t) in male Sprague-Dawley rat at 100 mg/kg, po measured on day 1 by UP/LC/MS/MS analysis
- Type: ADME, organism-based
- run_parameters: in vivo, time 1 day
measure_name: AUC(0-t) at 24 h (µg·h/mL)
Give bare numbers, in µg·h/mL.

input: Fill in the blank: the reported AUC(0-t) at 24 h of "Cl.c1ccc2c(c1)nnn2CCCCN1CCN(c2nsc3ccccc23)CC1" is ____.
output: 1.46

====

- assay_explanation: AUC (0 to t) in female Sprague-Dawley rat at 30 mg/kg, po qd treated for 13 weeks consecutively measured after recovery period on day 91 by UP/LC/MS/MS analysis
- Assay type: ADME, organism-based
- run_parameters: in vivo, time 91 day
measure_name: AUC(0-t) at 2184 h (ng·h/mL)
Answers are plain numbers, in ng·h/mL.

input: Fill in the blank: the reported AUC(0-t) at 2184 h of "Cl.c1ccc2c(c1)nnn2CCCCN1CCN(c2nsc3ccccc23)CC1" is ____.
output: 1470
